System: Huh-9B
Assay: Toxicity determination on the tox plate by methylene blue staining
Type: cell-based
Conditions: Huh-9B cells, parallel tox plate
quantity.name: Replicon TD50

Illustrative cases are given below, each with its answer.
compound="CC(C)Oc1cc(-c2ccc3ncnc(Nc4ccc(-n5cncn5)cc4)c3c2)ccc1F [Example 24]" test_system=Huh-9B endpoint_result="** (** >25 μM)"
compound="COc1ncc(-c2ccc3ncnc(Nc4ccc(-n5cncn5)cc4)c3c2)cn1 [Example 16]" test_system=Huh-9B endpoint_result="** (** >25 μM)"
compound="Cc1csc(-c2ccc3ncnc(Nc4ccc(-n5cncn5)cc4)c3c2)c1 [Example 18]" test_system=Huh-9B endpoint_result="** (** >25 μM)"
compound="CC(C)(C)c1ccc2ncnc(Nc3ccc(-n4cncn4)cc3)c2c1 [Example 2]" test_system=Huh-9B endpoint_result="** (** >25 μM)"
compound="COCCOc1ccc(-c2ccc3ncnc(Nc4ccc(-n5nc(C(=O)N(C)C)nc5C)cc4)c3c2)cc1F [Example 32]" test_system=Huh-9B endpoint_result="* (* <25 μM)"
compound="COc1ccc(-c2ccc3ncnc(Nc4ccc(-n5cncn5)cc4)c3c2)cc1OC [Example 10]" test_system=Huh-9B endpoint_result="* (* <25 μM)"
compound="Cc1cc(-n2cncn2)ccc1Nc1ncnc2ccc(Br)cc12 [Example 33]" test_system=Huh-9B endpoint_result="** (** >25 μM)"
compound="COCCOc1ccc(-c2ccc3ncnc(Nc4ccc(-n5cncn5)cc4)c3c2)cc1F [Example 9]" test_system=Huh-9B endpoint_result="** (** >25 μM)"
compound="CNC(=O)c1nc(C)n(-c2ccc(Nc3ncnc4ccc(-c5ccc(OCCOC)c(F)c5)cc34)cc2)n1 [Example 31]" test_system=Huh-9B endpoint_result="** (** >25 μM)"
compound="Fc1ccc(-c2ccc3ncnc(Nc4ccc(-n5cncn5)cc4)c3c2)cc1F [Example 5]" test_system=Huh-9B endpoint_result="** (** >25 μM)"

Enquiry: Replicon TD50 for CN(C)CCOc1ccc(-c2ccc3ncnc(Nc4ccc(-n5cncn5)cc4)c3c2)cc1 [Example 12] ?
Return: * (* <25 μM)

Enquiry: Same question, COc1ccc(-c2ccc3ncnc(Nc4ccc(-n5nc(C(=O)O)nc5C)cc4)c3c2)cc1OC [Example 29] this time
Return: ** (** >25 μM)

Enquiry: Same question, Brc1ccc2ncnc(Nc3ccc(-n4cncn4)cc3)c2c1 [Example 21] this time
Return: ** (** >25 μM)

Enquiry: Same question, COc1ccc(-c2ccc3ncnc(Nc4ccc(-n5cncn5)cc4)c3c2)cc1F [Example 7] this time
Return: ** (** >25 μM)
